Measured values drawn from ChEMBL document CHEMBL4680320 for this set.

- Tested on: A2780
- ASSAY SUMMARY: Antiproliferative activity against human A2780 cells assessed as cell viability incubated for 48 hrs by MTS assay
- Assay type: functional, cell-based
- ASSAY CONDITIONS: A2780, 48 h
PROPERTY NAME: IC50 (µM)
Write the number in µM without appending the unit.

O=C1Nc2ccc(Br)cc2[C@]12[C@@H](c1ccccc1)C(c1ccccc1)=NN2c1ccccc1
8.5

Return reported IC50; argument: CC(C)(C)C1=NN(c2ccc(Cl)cc2)[C@]2(C(=O)Nc3cc(Cl)c(F)cc32)[C@H]1c1cccc(Cl)c1F
9.9

Return reported IC50; argument: COc1cccc2c1C(=O)c1c(O)c3c(c(O)c1C2=O)C[C@@](O)(C(=O)CO)C[C@@H]3O[C@H]1C[C@H](N)[C@H](O)[C@H](C)O1 [DOXORUBICIN]
0.6

Return reported IC50; argument: CC(C)(C)C1=NN(c2ccccc2)[C@]2(C(=O)Nc3cc(Cl)c(F)cc32)[C@H]1c1cccc(Cl)c1F
11.7
